Record: pKi reported on Adenosine receptor A2a (Homo sapiens, UniProt P29274).
Sequence (P29274 whole entry): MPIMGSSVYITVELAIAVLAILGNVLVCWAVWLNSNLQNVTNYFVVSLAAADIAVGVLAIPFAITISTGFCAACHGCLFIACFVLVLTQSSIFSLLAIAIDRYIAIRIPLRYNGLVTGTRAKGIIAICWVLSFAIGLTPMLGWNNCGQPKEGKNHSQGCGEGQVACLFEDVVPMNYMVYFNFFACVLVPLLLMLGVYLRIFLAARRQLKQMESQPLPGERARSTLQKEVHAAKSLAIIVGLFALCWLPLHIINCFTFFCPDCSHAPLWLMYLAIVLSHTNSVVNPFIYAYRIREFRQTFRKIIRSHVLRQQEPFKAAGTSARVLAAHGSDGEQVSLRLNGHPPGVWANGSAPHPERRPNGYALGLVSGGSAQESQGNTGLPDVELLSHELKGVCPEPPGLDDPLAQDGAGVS
Please treat pKi as minus the base-10 logarithm of the molar concentration.

Which value of pKi has been reported for COC(=O)CCC(=O)N1CCN(c2nc(N)n3nc(-c4ccco4)nc3n2)CC1 in the records? 7.18

Returns the measured pKi for the input molecule. Input: NCCNc1nc(NCCN)n2nc(-c3ccco3)nc2n1 4.42

Sample Nc1nc(N2CCN(C(=O)C(Cl)Cl)CC2)nc2nc(-c3ccco3)nn12 — what was its pKi? 6.55

If you can, please state the reported pKi value of O=C(Nc1nc(O)nc2nc(-c3ccco3)nn12)c1ccccc1 . 5.76

Need pKi of CC(C)(C)OC(=O)NCCNc1nc(N)n2nc(-c3ccco3)nc2n1 , thanks. 7.39

pKi for CC(C)(C)OC(=O)NCC1CCC(CNc2nc(N)n3nc(-c4ccco4)nc3n2)CC1 (stereo unspecified) ? 7.16

pKi for Nc1nc(N2CCN(C(=O)C(c3ccccc3)c3ccccc3)CC2)nc2nc(-c3ccco3)nn12 ? 7.03

# query: pKi of entry O=C(Nc1nc(Oc2ccccc2)nc2nc(-c3ccco3)nn12)c1ccccc1 6.00

Which pKi value belongs to Nc1nc(N2CCN(C(=O)c3ccc([N+](=O)[O-])cc3)CC2)nc2nc(-c3ccco3)nn12 ? 6.67

I have this molecule here, Nc1nc(NC(=O)c2ccccc2)n2nc(-c3ccco3)nc2n1 , and I need its recorded pKi. 7.36

I have this molecule here, Nc1nc(N2CCNCC2)nc2nc(-c3ccco3)nn12 , and I need its recorded pKi. 6.82

Need pKi of Nc1nc(N2CCN(Cc3ccc(Br)cc3)CC2)nc2nc(-c3ccco3)nn12 , thanks. 7.56

Fill blank: measured pKi of the molecule Nc1nc(N2CCN(Cc3ccc(F)cc3)CC2)nc2nc(-c3ccco3)nn12 is ____. 7.28

Any idea what pKi was measured for Nc1nc(N2CCN(C(=O)c3ccccc3)CC2)nc2nc(-c3ccco3)nn12 ? 6.46

If you can, please state the reported pKi value of NCC1CCC(CNc2nc(N)n3nc(-c4ccco4)nc3n2)CC1.O=C(O)C(F)(F)F (stereo unspecified) . 7.77

Returns the measured pKi for the input molecule. Input: Nc1nc(N2CCN(Cc3cccc(Cl)c3)CC2)nc2nc(-c3ccco3)nn12 7.29

Recorded pKi for NCCCCCNc1nc(N)n2nc(-c3ccco3)nc2n1 , please? 7.05

Reported pKi, molecule NCCCNc1nc(N)n2nc(-c3ccco3)nc2n1 : ____ 6.57

Which pKi value belongs to Nc1nc(N2CCN(C(=O)c3cccc4ccccc34)CC2)nc2nc(-c3ccco3)nn12 ? 5.11

Quick one: pKi of CCCCC(=O)N1CCN(c2nc(N)n3nc(-c4ccco4)nc3n2)CC1 ? 6.91

Return reported pKi; argument: Nc1nc(N2CCN(C(=O)Cc3ccccc3)CC2)nc2nc(-c3ccco3)nn12 7.02

----------
Please provide measured Activity for the entries that follow.
- target entity: Adenosine receptor A1 (Homo sapiens)
- protocol summary: Displacement of [3H]DPCPX from human adenosine A1 receptor expressed in HEK293 cells at 10 uM by scintillation counting
- Type: cell-based
Respond with the bare value in %.

Which Activity is listed for CC(C)(C)CC(=O)N1CCN(c2nc(N)n3nc(-c4ccco4)nc3n2)CC1 ? 53.1

# query: Activity of entry CCCCC(=O)N1CCN(c2nc(N)n3nc(-c4ccco4)nc3n2)CC1 10.8

For O=C(Nc1nc(Oc2ccccc2)nc2nc(-c3ccco3)nn12)c1ccccc1 , what is its reported Activity? 26.2

Tell me the measured Activity of Nc1nc(N2CCN(C(=O)c3ccc([N+](=O)[O-])cc3)CC2)nc2nc(-c3ccco3)nn12 , please. 35.5

What Activity value was documented for this molecule, Nc1nc(N2CCNCC2)nc2nc(-c3ccco3)nn12 ? 28.6

For the molecule NCCNc1nc(N)n2nc(-c3ccco3)nc2n1 , what Activity is on record? 35.8

// Activity lookup, key: Nc1nc(N2CCN(C(=O)c3ccccc3)CC2)nc2nc(-c3ccco3)nn12 27.7

Dear colleague, I am looking for the recorded Activity of the following molecule: Nc1nc(N2CCN(C(=O)c3cccc4ccccc34)CC2)nc2nc(-c3ccco3)nn12 4.9

# Activity lookup, item COC(=O)CCC(=O)N1CCN(c2nc(N)n3nc(-c4ccco4)nc3n2)CC1 19.4

I would be grateful if you could share the reported Activity for NCCNc1nc(NCCN)n2nc(-c3ccco3)nc2n1 . 10.7

I'd like to know its Activity. The molecule in question is CC(C)(C)OC(=O)NCCNc1nc(NCCNC(=O)OC(C)(C)C)n2nc(-c3ccco3)nc2n1 7.4

Reported Activity, molecule O=C(Nc1nc(O)nc2nc(-c3ccco3)nn12)c1ccccc1 : ____ 34.4

// returns reported Activity for input CC(C)(C)C(=O)N1CCN(c2nc(N)n3nc(-c4ccco4)nc3n2)CC1 38.7

Item under review: Nc1nc(N2CCN(C(=O)C(Cl)Cl)CC2)nc2nc(-c3ccco3)nn12 . Reported Activity? 34.6

Which Activity value is on record for NCCCNc1nc(N)n2nc(-c3ccco3)nc2n1 ? 44.3

Hello, the source for this data is ChEMBL document CHEMBL1926574, in case you need it.
